Test system: TGF-β
ASSAY_REMARKS: AlphaScreen SureFire p-SMAD3 (Ser423/425) assay, TGF-β-stimulated cells
Format: cell-based
APPLIED_CONDITIONS: Mus musculus, MPC-11, read-out: TGF-β: inhibition of TGF-β signaling, TGF-β pSMAD (MPC-11), p-SMAD3 (Ser423/425) AlphaScreen in cell lysate, TGF-β stimulation
pIC50: −log10 of the molar value.
QUANTITY: pIC50

Answered examples (7):
O=C(O)C1CCC2(CC1)Cc1nc(-c3ccc(F)cc3)c(-c3ccc4ncsc4c3)n1C2 (centres unmarked)
< 6.00
Fc1cc(-c2nc3n(c2-c2ccc4[nH]ncc4c2)CCC3)cc(F)c1F
6.00 to 7.00
Cc1cc(-c2nc3n(c2-c2ccc4nccnc4c2)CCC3)c(C)cc1F
< 6.00
CN(C)C(=O)C1CCC2(CC1)Cc1nc(-c3ccc(F)cc3)c(-c3ccc4ncnn4c3)n1C2 (centres unmarked)
< 6.00
Fc1cc(F)c(F)c(-c2nc3n(c2-c2ccc4[nH]ncc4c2)CCC3)c1
< 6.00
Fc1cc(F)cc(-c2nc3n(c2-c2ccc4cn[nH]c4c2)CCC3)c1
< 6.00
Clc1ccc(Cl)c(-c2nc3n(c2-c2ccc4ncsc4c2)CCC3)c1
7.00 to 7.30

Field: next molecule
For record CCOC(=O)C1CCC2(CC1)Cc1nc(-c3ccc(F)cc3)c(-c3ccc4nccnc4c3)n1C2 (centres unmarked) the listed pIC50 is < 6.00

All values here come from patent US10696693B2.
